tested on: Cryptococcus neoformans; experiment: Synergistic antifungal activity against Cryptococcus neoformans ATCC 32719 assessed as fractional inhibitory concentration index in presence of Polyoxin B incubated for 24 hrs by half broth dilution based checkerboard method; type: functional
measured.endpoint: fractional inhibitory concentration index (FICI)

molecule="O=C(/C=C/C(=O)Nc1cccc2ccccc12)Nc1ccc2c(c1)NC(=O)C1(CCNC1=O)C2 (racemic)" numeric_value=0.5
molecule="O=C(/C=C/C(=O)Nc1nc2ccccc2s1)Nc1ccc2c(c1)NC(=O)C1(CCNC1=O)C2 (racemic)" numeric_value=1
molecule="Cc1ccc(NC(=O)/C=C/C(=O)Nc2ccc3c(c2)NC(=O)C2(CCNC2=O)C3)cc1 (racemic)" numeric_value=1.5
molecule="O=C(/C=C/C(=O)Nc1ccc2c(c1)NC(=O)C1(CCNC1=O)C2)Nc1ccc(Br)cc1 (racemic)" numeric_value=1
